tested on: P. aeruginosa MMX 3476 Δmex; assay: MIC determination; format: cell-based; settings: Pseudomonas aeruginosa
Reported MIC values are given for each entry in this list.

CSC1O[C@H]([C@H](NC(=O)[C@H]2NC[C@@H]3CC(c4ccc(C(F)(F)F)cc4)=CCO[C@H]32)[C@H](C)Cl)C(O)[C@@H](O)[C@H]1O (some centres unmarked) [FSA-507060] | > 64 mg/L

MIC measured on CSC1O[C@H]([C@H](NC(=O)[C@H]2NC[C@@H]3CC(F)(F)CCO[C@H]32)[C@H](C)Cl)C(O)[C@@H](O)[C@H]1O (some centres unmarked) [FSA-24036] = 32 mg/L

MIC measured on Cc1ccc(S(=O)(=O)OCC2O[C@H]([C@H](NC(=O)[C@H]3NC[C@@H]4CC=CCO[C@H]43)[C@@H](C)O)C(O)[C@@H](O)[C@H]2O)cc1 (some centres unmarked) [FSA-211030] = > 64 mg/L

MIC measured on CCC[C@@H]1C[C@@H](C(=O)N[C@@H]([C@H]2O[C@H](SC)[C@H](O)[C@@H](O)[C@H]2O)[C@H](C)Cl)N(C)C1 [Clindamycin, clindamycin, reference compound] = > 64 mg/L

MIC measured on CSC1O[C@H]([C@H](NC(=O)[C@H]2NC[C@@H]3CC(c4ccc(F)cc4)=CCO[C@H]32)[C@H](C)Cl)C(O)[C@@H](O)[C@H]1O (some centres unmarked) [FSA-507057] = > 64 mg/L

MIC measured on CSC1O[C@H]([C@H](NC(=O)[C@H]2NC[C@@H]3C[C@@H](c4ccc(F)cc4)CCO[C@H]32)[C@H](C)Cl)C(O)[C@@H](O)[C@H]1O (some centres unmarked) [FSA-507061] = > 64 mg/L

MIC measured on CSC1O[C@H]([C@H](NC(=O)[C@H]2NC[C@H]3CC=CCO[C@H]32)[C@H](C)Cl)C(O)[C@@H](O)[C@H]1O (some centres unmarked) [FSA-507051] = > 32 mg/L

MIC measured on CSC1O[C@H]([C@H](NC(=O)[C@H]2NC[C@@H]3C=C(c4ccccc4)CCO[C@@H]23)[C@H](C)Cl)C(O)[C@@H](O)[C@H]1O (some centres unmarked) [FSA-507031] = > 32 mg/L

MIC measured on C=CC1=CCO[C@@H]2[C@H](CN[C@@H]2C(=O)N[C@H]([C@H](C)Cl)[C@H]2OC(SC)[C@H](O)[C@H](O)C2O)C1 (some centres unmarked) [FSA-507041] = > 32 mg/L

MIC measured on CSC1O[C@H]([C@H](NC(=O)[C@H]2NC[C@@H]3C[C@H]4C[C@H]4CO[C@H]32)[C@H](C)Cl)C(O)C(O)[C@H]1O (stereo in doubt) [FSA-507007] = 64 mg/L

MIC measured on CSC1O[C@H]([C@H](NC(=O)[C@H]2NC[C@@H]3C=C(c4ccc(F)cc4)CCO[C@@H]23)[C@H](C)Cl)C(O)[C@@H](O)[C@H]1O (some centres unmarked) [FSA-507052] = > 32 mg/L

MIC measured on CSC1O[C@H]([C@H](NC(=O)[C@H]2NC[C@@H]3CC=CCO[C@H]32)[C@H](C)Sc2ccc(-c3cncnc3)cc2)C(O)[C@@H](O)[C@H]1O (some centres unmarked) [FSA-27049] = > 64 mg/L

MIC measured on CSC1O[C@H]([C@H](NC(=O)[C@@H]2[C@@H]3OCC=CC[C@H]3CN2C)[C@H](C)Sc2ccc(-c3cncnc3)cc2)C(O)[C@@H](O)[C@H]1O (some centres unmarked) [FSA-212034] = > 64 mg/L

MIC measured on CSC1O[C@H]([C@H](NC(=O)[C@H]2NC[C@@H]3CC(c4ccccc4)=CCO[C@H]32)[C@H](C)Cl)C(O)[C@@H](O)[C@H]1O (some centres unmarked) [FSA-507056] = > 32 mg/L

MIC measured on CSC1O[C@H]([C@H](NC(=O)[C@H]2NC[C@@H]3CC=CCO[C@H]32)[C@H](C)Cl)C(O)[C@@H](O)[C@H]1O (some centres unmarked) [FSA-24035] = 16 mg/L

MIC measured on C[C@@H](O)[C@@H](NC(=O)[C@H]1NC[C@@H]2CC=CCO[C@H]21)[C@H]1OC(CN=[N+]=[N-])[C@H](O)[C@H](O)C1O (some centres unmarked) [FSA-211064] = > 64 mg/L

MIC measured on CSC1O[C@H]([C@H](NC(=O)[C@H]2NC[C@@H]3C=C(c4ccc(C(F)(F)F)cc4)CCO[C@@H]23)[C@H](C)Cl)C(O)[C@@H](O)[C@H]1O (some centres unmarked) [FSA-507053] = > 64 mg/L

---

tested on: S. pneumoniae ATCC 49619; experiment: MIC determination; format: cell-based; conditions: Streptococcus pneumoniae, ATCC49619; S. pneumoniae ATCC 49619; read-out: MIC
Reported MIC values are given for each entry in this list.
Dear colleague, please return just the value in µg/mL, with no unit written.

CSC1O[C@H]([C@H](NC(=O)[C@H]2NC[C@@H]3CC(c4ccccc4)=CCO[C@H]32)[C@H](C)Cl)C(O)[C@@H](O)[C@H]1O (stereo partly drawn) | 0.25

Proceeding to the next compound to report its MIC.
Response field MIC (S. pneumoniae ATCC 49619) for item CSC1O[C@H]([C@H](NC(=O)[C@H]2NC[C@@H]3CC(NCc4cccc(F)c4)CCO[C@H]32)[C@H](C)Cl)C(O)[C@@H](O)[C@H]1O (stereo partly drawn) : 8

---

system: S. pneumoniae MMX 3031 cMefA
measuredProperty: MIC (µg/mL)
Dear colleague, please return just the value in µg/mL, with no unit written.

Here are 2 molecules together with their reported answers.
CSC1O[C@H]([C@H](NC(=O)[C@H]2NC[C@@H]3C[C@@H](c4ccc(C(F)(F)F)cc4)CCO[C@H]32)[C@H](C)Cl)C(O)[C@@H](O)[C@H]1O (stereo partly drawn) | 0.125
CSC1O[C@H]([C@H](NC(=O)[C@@H]2[C@@H]3OCC=CC[C@H]3CN2C)[C@H](C)Sc2ccc(-c3cccnc3)cc2)C(O)[C@@H](O)[C@H]1O (stereo partly drawn) | 0.125

Proceeding to the next molecule to report its MIC.
Response field MIC (S. pneumoniae MMX 3031 cMefA) for item CSC1O[C@H]([C@H](NC(=O)[C@H]2NC[C@@H]3C=C(c4ccccc4F)CCO[C@@H]23)[C@H](C)Cl)C(O)[C@@H](O)[C@H]1O (stereo partly drawn) : 0.12

---

test system: S. pneumoniae ATCC 49619; assay: MIC determination; assay type: cell-based; details: Streptococcus pneumoniae, ATCC49619; S. pneumoniae ATCC 49619; read-out: MIC
Reported MIC values are given for each entry in this list.

CSC1O[C@H]([C@H](NC(=O)[C@@H]2[C@@H]3OCCCC[C@H]3CN2C)[C@H](C)Cl)C(O)C(O)[C@H]1O (stereo partly drawn) | ≤ 0.0313 µg/mL

Proceeding to the next compound to report its MIC.
MIC measured on CSC1O[C@H]([C@H](NC(=O)[C@H]2NC[C@@H]3C[C@@H](C4CCN(C)CC4)CCO[C@H]32)[C@H](C)Cl)C(O)[C@@H](O)[C@H]1O (stereo partly drawn) = 1 µg/mL

---

Reported MIC values are given for each entry in this list.
system: E. coli ATCC 25922; assay: MIC determination; assay type: cell-based; settings: Escherichia coli, ATCC25922, E. coli ATCC 25922; read-out: MIC

CSC1O[C@H]([C@H](NC(=O)[C@H]2NC[C@@H]3CC=CCO[C@H]32)[C@H](C)Sc2ccc(-c3cccnc3)cc2)C(O)[C@@H](O)[C@H]1O (stereo partly drawn) | > 64 µg/mL
COc1ccc([C@@H]2CCO[C@@H]3[C@H](CN[C@@H]3C(=O)N[C@H]([C@H](C)Cl)[C@H]3OC(SC)[C@H](O)[C@H](O)C3O)C2)cc1 (stereo partly drawn) [FSA-512080c] | > 128 µg/mL

MIC measured on CSC1O[C@H]([C@H](NC(=O)[C@H]2NC[C@@H]3C=C(c4ccc(C#N)cc4)CCO[C@@H]23)[C@H](C)Cl)C(O)[C@@H](O)[C@H]1O (stereo partly drawn) = > 256 µg/mL

MIC measured on CSC1O[C@H]([C@H](NC(=O)[C@H]2NC[C@@H]3CCCO[C@H]32)[C@H](C)Cl)C(O)[C@@H](O)[C@H]1O (stereo partly drawn) = > 32 µg/mL

MIC measured on CSC1O[C@H]([C@H](NC(=O)[C@H]2NC[C@@H]3C=C(c4cc(F)cc(F)c4)CCO[C@@H]23)[C@H](C)Cl)C(O)[C@@H](O)[C@H]1O (stereo partly drawn) = > 64 µg/mL

MIC measured on COc1ccc(C2=C[C@H]3CN[C@H](C(=O)N[C@H]([C@H](C)Cl)[C@H]4OC(SC)[C@H](O)[C@H](O)C4O)[C@@H]3OCC2)cc1 (stereo partly drawn) = > 256 µg/mL

The measured values listed here are drawn from patent US11767341B2.
